Test system: Nippostrongylus brasiliensis
ASSAY: Anthelmintic activity against larvae stage of Nippostrongylus brasiliensis infected in rat assessed as decrease in worm load at 250 mg/kg, po administered on day 8 post infection
Assay type: functional, organism-based
Set-up: dose 250 mg/kg
Calls of active or inactive are those of the source. The rule behind the calls is not given here.

| COMPOUND STRUCTURE | Activity |
| --- | --- |
| C[N+](C)(CCCCCCOc1c(Br)cc(Br)cc1Br)Cc1ccc([N+](=O)[O-])o1.[Br-] | inactive |
| Cc1cc(OCCCC[N+](C)(C)Cc2ccc(Br)o2)c(C(C)C)cc1Cl.[Br-] | inactive |
| C[N+](C)(CCCCOc1c(Br)cc(Br)cc1Br)Cc1ccc(Br)o1.[Br-] | inactive |

---

MIC values by entry
Test system: Pseudomonas aeruginosa
ASSAY: Antibacterial activity against Pseudomonas aeruginosa ATCC 10145 assessed as growth inhibition after 24 hrs by dilution tube method
Format: functional
EXPERIMENTAL PARAMETERS: ATCC 10145, 24 h
Just the number in µg/mL, nothing appended.

Field: example entries. Status: answers known.
| COMPOUND STRUCTURE | UNIT STRING | MIC |
| --- | --- | --- |
| Cc1cc(OCCCCC[N+](C)(C)Cc2ccc([N+](=O)[O-])o2)c(C(C)C)cc1Cl.[Br-] | µg/mL | 2.5 |
| C[N+](C)(CCCCCOc1ccc(Cl)cc1)Cc1ccc(Br)o1.[Br-] | µg/mL | 25 |
| Cc1ccc(C[N+](C)(C)CCCCOc2cc(C)c(Cl)cc2C(C)C)o1.[Br-] | µg/mL | 5 |
| Cc1cc(OCCCCCCC[N+](C)(C)Cc2ccc(Br)o2)c(C(C)C)cc1Cl.[Br-] | µg/mL | 3 |

Continue with the compound presented below.
Record Cc1ccc(C[N+](C)(C)CCCCCCOc2c(Br)cc(Br)cc2Br)o1.[Br-] : what is its MIC with Pseudomonas aeruginosa? 2.5

---

System: Staphylococcus aureus
ASSAY: Antibacterial activity against Staphylococcus aureus ATCC 6538 assessed as growth inhibition after 24 hrs by dilution tube method
Format: functional
EXPERIMENTAL PARAMETERS: ATCC 6538, 24 h
PROPERTY MEASURED: log10 of MIC (log10 of the value in mg/L)
Annotation: log10 of MIC, mg/L basis.

Some molecules with known log10 of MIC results, for comparison:
| COMPOUND STRUCTURE | TARGET UNDER TEST | PROPERTY MEASURED | RESULT VALUE |
| --- | --- | --- | --- |
| Cc1cc(OCCCCC[N+](C)(C)Cc2ccc([N+](=O)[O-])o2)c(C(C)C)cc1Cl.[Br-] | Staphylococcus aureus | log10 of MIC | 1.00 |
| C[N+](C)(CCCOc1c(Br)cc(Br)cc1Br)Cc1ccc(Br)o1.[Br-] | Staphylococcus aureus | log10 of MIC | 1.00 |
| C[N+](C)(CCCCCCOc1c(Br)cc(Br)cc1Br)Cc1ccc([N+](=O)[O-])o1.[Br-] | Staphylococcus aureus | log10 of MIC | 1.00 |

Can you look up the measured log10 of MIC of Cc1cc(OCCC[N+](C)(C)Cc2ccc(Br)o2)c(C(C)C)cc1Cl.[Br-] for me? 1.00

Need log10 of MIC of C[N+](C)(CCCCCCCCOc1c(Br)cc(Br)cc1Br)Cc1ccc([N+](=O)[O-])o1.[Br-] , thanks. 0.60

Consider the molecule shown here: Cc1cc(OCCCCCCCCCC[N+](C)(C)Cc2ccc([N+](=O)[O-])o2)c(C(C)C)cc1Cl.Cc1ccc(S(=O)(=O)[O-])cc1 What is its recorded log10 of MIC? 2.30

Which value of log10 of MIC has been reported for C[N+](C)(CCCCCCOc1c(Br)cc(Br)cc1Br)Cc1ccc(Br)o1.[Br-] in the records? 0.30

Need log10 of MIC, item C[N+](C)(CCCCCCCCCCCCOc1c(Br)cc(Br)cc1Br)Cc1ccc(Br)o1.[Br-] 2.30

---

Overview of recorded MIC for various compounds
Tested on: Cryptococcus neoformans
ASSAY: Antifungal activity against Cryptococcus neoformans 103 assessed as growth inhibition by agar dilution method
Assay type: functional
Reply with just the number (in µg/mL).

Sample records with MIC:
| COMPOUND STRUCTURE | TARGET UNDER TEST | PROPERTY MEASURED | RESULT VALUE |
| --- | --- | --- | --- |
| Cc1cc(OCCCCCCCC[N+](C)(C)Cc2ccc(Br)o2)c(C(C)C)cc1Cl.Cc1ccc(S(=O)(=O)[O-])cc1 | Cryptococcus neoformans | MIC | 50 |
| C[N+](C)(CCCCOc1c(Br)cc(Br)cc1Br)Cc1ccc(Br)o1.[Br-] | Cryptococcus neoformans | MIC | 25 |

Continue with the compound presented below.
Data request, read-out MIC, for Cc1ccc(C[N+](C)(C)CCCCOc2cc(C)c(Cl)cc2C(C)C)o1.[Br-] 25

---

Test system: Staphylococcus aureus
ASSAY: Antibacterial activity against Staphylococcus aureus ATCC 6538 assessed as growth inhibition after 24 hrs by dilution tube method
Assay type: functional
EXPERIMENTAL PARAMETERS: ATCC 6538, 24 h
Form field: MIC (one value per entry).
Form entry: value (µg/mL) — number only.

If you can, please state the reported MIC value of C[N+](C)(CCCCCOc1ccccc1Cl)Cc1ccc(Br)o1.[Br-] . 50

Please give the measured MIC for this compound: Cc1ccc(C[N+](C)(C)CCOc2c(Br)cc(Br)cc2Br)o1.[Br-] 50

Fill in: MIC of C[N+](C)(CCCCCOc1ccc(Cl)cc1)Cc1ccc(Br)o1.[Br-] is ___ 50

---

Test system: Staphylococcus aureus
ASSAY: Antibacterial activity against Staphylococcus aureus ATCC 6538 assessed as growth inhibition after 24 hrs by dilution tube method
Type: functional
EXPERIMENTAL PARAMETERS: ATCC 6538, 24 h
PROPERTY MEASURED: MIC (µg/mL)
Your answer is read as µg/mL, so omit the unit and give the number.

| COMPOUND STRUCTURE | UNIT STRING | MIC |
| --- | --- | --- |
| Cc1cc(OCCCCCC[N+](C)(C)Cc2ccc(Br)o2)c(C(C)C)cc1Cl.Cc1ccc(S(=O)(=O)[O-])cc1 | µg/mL | 50 |

// lookup MIC for C[N+](C)(CCCCCCCCCCCCCCOc1c(Br)cc(Br)cc1Br)Cc1ccc(Br)o1.Cc1ccc(S(=O)(=O)[O-])cc1 100

// MIC lookup, key: C[N+](C)(CCCCOc1ccc(Cl)cc1)Cc1ccc(Br)o1.[Br-] 100

Origin of measurements: ChEMBL document CHEMBL3244174
